// provenance: patent US20040014047A1

- Tested on: human LIM domain kinase 1 mRNA
- protocol-details: Antisense inhibition of human LIM domain kinase 1 mRNA levels, quantitative real-time PCR, A549 cells (screen)
- Assay type: cell-based
- applied-conditions: quantitative real-time PCR, averages from two experiments, screening concentration not given (50 nM to 300 nM used herein)
Strand notation (5' to 3'): a small letter for the sugar, then the base; units joined by * are phosphorothioate-linked, units joined directly phosphodiester-linked; [ ] holds rarer units or linkages, { } end groups; capitals alone tell only the bases. e = 2'-O-(2-methoxyethyl) (MOE); [5mC] = 5-methylcytosine; d = 2'-deoxy (DNA)
Each entry gets criterion not met if its % INHIB (inhibition of human LIM domain kinase 1 mRNA levels) stays under 80%, and criterion met if its % INHIB (inhibition of human LIM domain kinase 1 mRNA levels) is 80% or above.

substance: 206237 (antisense eG*eT*e[5mC]*e[5mC]*eT*dG*d[5mC]*d[5mC]*d[5mC]*d[5mC]*dA*d[5mC]*dA*dG*dA*e[5mC]*eT*e[5mC]*eA*eG) [compound 206237]
cat: criterion not met
//
substance: 206175 (antisense eT*eA*eG*e[5mC]*eG*dG*dG*d[5mC]*d[5mC]*d[5mC]*dA*dG*dT*dA*dG*eT*e[5mC]*e[5mC]*eT*eT) [compound 206175]
cat: criterion met
//
substance: 206223 (antisense eG*eG*eT*eG*eT*dG*dT*d[5mC]*dA*d[5mC]*d[5mC]*dT*dT*dG*dA*eT*eA*eG*e[5mC]*e[5mC]) [compound 206223]
cat: criterion not met
//
substance: 206192 (antisense eA*eG*e[5mC]*eT*e[5mC]*d[5mC]*dT*d[5mC]*dA*dA*dG*dA*d[5mC]*dA*dG*eG*eT*eT*eT*e[5mC]) [compound 206192]
cat: criterion not met
//
substance: 206238 (antisense eG*e[5mC]*eA*eT*eG*dA*dA*dG*dG*d[5mC]*dA*d[5mC]*dT*dA*d[5mC]*e[5mC]*eT*e[5mC]*e[5mC]*e[5mC]) [compound 206238]
cat: criterion not met
//
substance: 206236 (antisense e[5mC]*eT*eG*eG*eA*d[5mC]*d[5mC]*dT*dA*d[5mC]*d[5mC]*dT*d[5mC]*dG*d[5mC]*eA*e[5mC]*eA*eG*eG) [compound 206236]
cat: criterion not met
//
substance: 206162 (e[5mC]*eT*eG*e[5mC]*eT*dG*d[5mC]*dA*dG*d[5mC]*d[5mC]*dG*dT*dA*dT*eG*eA*eA*eA*eA; antisense) [compound 206162]
cat: criterion not met
//
substance: 206216 (antisense eT*e[5mC]*eA*e[5mC]*eA*dG*dT*dT*dT*dT*dA*dA*dT*dA*d[5mC]*eT*eT*e[5mC]*e[5mC]*eT) [compound 206216]
cat: criterion not met
//
substance: 206210 (antisense e[5mC]*e[5mC]*eT*e[5mC]*e[5mC]*dA*dG*dG*dG*dA*dG*d[5mC]*dT*dA*dT*eG*eG*eA*e[5mC]*e[5mC]) [compound 206210]
cat: criterion met
//
substance: 206202 (antisense eG*eT*e[5mC]*eT*e[5mC]*dG*dG*dT*dG*dG*dA*dT*dG*dA*dT*eG*eT*eT*e[5mC]*eA) [compound 206202]
cat: criterion not met
//
substance: 206180 (antisense eA*e[5mC]*eA*eT*e[5mC]*dT*dG*dG*dG*d[5mC]*dT*d[5mC]*dA*dT*dG*e[5mC]*eA*eG*e[5mC]*e[5mC]) [compound 206180]
cat: criterion not met
//
substance: 206174 (antisense eG*eG*e[5mC]*e[5mC]*e[5mC]*dA*dG*dT*dA*dG*dT*d[5mC]*d[5mC]*dT*dT*e[5mC]*eT*eT*eG*e[5mC]) [compound 206174]
cat: criterion met
//
substance: 206188 (antisense eT*e[5mC]*eG*eA*eG*dG*dG*dT*d[5mC]*dA*dG*d[5mC]*dT*dG*dG*eA*eG*e[5mC]*eA*eG) [compound 206188]
cat: criterion not met
//
substance: 206225 (antisense eG*eG*eA*eG*eT*dG*dA*dA*dA*dG*d[5mC]*dA*d[5mC]*d[5mC]*d[5mC]*eA*eG*e[5mC]*eT*eG) [compound 206225]
cat: criterion not met
//
substance: 206166 (eT*eT*e[5mC]*eT*eT*d[5mC]*d[5mC]*d[5mC]*dT*d[5mC]*d[5mC]*dA*dG*dG*dT*eG*e[5mC]*eA*eA*e[5mC]; antisense) [compound 206166]
cat: criterion not met
//
substance: 206171 (eA*eG*eG*eG*e[5mC]*d[5mC]*dT*dG*dG*dA*dG*dG*dT*dA*d[5mC]*eT*eG*eG*e[5mC]*e[5mC]; antisense) [compound 206171]
cat: criterion met
//
substance: 206184 (antisense eA*eT*eT*eT*e[5mC]*d[5mC]*dA*dA*dG*dA*dT*d[5mC]*d[5mC]*dG*dG*eT*e[5mC]*eT*e[5mC]*e[5mC]) [compound 206184]
cat: criterion not met
//
substance: 206177 (antisense eA*eG*e[5mC]*eT*eT*dG*dG*dA*dG*dT*dG*d[5mC]*dT*d[5mC]*d[5mC]*eA*e[5mC]*e[5mC]*eA*eG) [compound 206177]
cat: criterion met
